Just for reference, ChEMBL document CHEMBL1126763 is where these values come from.

Target under test: Angiotensin II receptor (Rattus norvegicus) (UniProt P29089+P25095+P35351)
Test details: Inhibitory activity on AII (100 ng/kg iv)-induced pressor response after administration at 0.1 mg/kg po in conscious male Sprague-Dawley rats at 3 h.
Assay type: functional, organism-based
Set-up: dose 0.1 mg/kg
Reported inhibition by item:
Note: state the figure and append the unit.

Answered examples (5):
CCCCc1nc2cccc(C(=O)OCc3oc(=O)oc3C)c2n1Cc1ccc(-c2ccccc2-c2nnn(Cc3oc(=O)oc3C)n2)cc1.CCCCc1nc2cccc(C(=O)OCc3oc(=O)oc3C)c2n1Cc1ccc(-c2ccccc2-c2nnnn2Cc2oc(=O)oc2C)cc1: 60%
CCOc1nc2cccc(C(=O)OCOC(=O)OC3CCCCC3)c2n1Cc1ccc(-c2ccccc2-c2nn[nH]n2)cc1: 15%
CCOc1nc2cccc(C(=O)OCOC(=O)C(C)(C)C)c2n1Cc1ccc(-c2ccccc2-c2nn[nH]n2)cc1: 86%
CCOc1nc2cccc(C(=O)OC(C)OC(=O)OC3CCC3)c2n1Cc1ccc(-c2ccccc2-c2nn[nH]n2)cc1 (configuration not stated): 83%
CCOc1nc2cccc(C(=O)OCOC(=O)C3CCCC3)c2n1Cc1ccc(-c2ccccc2-c2nn[nH]n2)cc1: 65%

input: Entry CCOc1nc2cccc(C(=O)OCc3oc(=O)oc3C)c2n1Cc1ccc(-c2ccccc2-c2nn[nH]n2)cc1 has what inhibition?
output: 85%

input: Entry CCOc1nc2cccc(C(=O)OCOC(=O)C(C)C)c2n1Cc1ccc(-c2ccccc2-c2nn[nH]n2)cc1 has what inhibition?
output: 52%

input: Entry CCCCc1nc2cccc(C(=O)O)c2n1Cc1ccc(-c2ccccc2-c2nnn(COC(=O)C(C)(C)C)n2)cc1.CCCCc1nc2cccc(C(=O)O)c2n1Cc1ccc(-c2ccccc2-c2nnnn2COC(=O)C(C)(C)C)cc1 has what inhibition?
output: 63%

input: Entry CCCCc1nc2cccc(C(=O)OCCO)c2n1Cc1ccc(-c2ccccc2-c2nn[nH]n2)cc1 has what inhibition?
output: 11%

input: Entry CCCCc1nc2cccc(C(=O)OC(C)OC(=O)OC3CCCCC3)c2n1Cc1ccc(-c2ccccc2-c2nn[nH]n2)cc1 (configuration not stated) has what inhibition?
output: 81%
